# Tested on: DENV-2 New Guinea C
# Condition Set: -2 New Guinea C
Where no end group is shown, it is not given here.
I'd be grateful if you could share measured Therapeutic Index (CC50/EC50) for these entries.

Task: For the sequence GSSWLRDVWTKLQSWL [TSG004] , what Therapeutic Index (CC50/EC50) is on record?
Output: 18.29

Task: For the sequence GSSWLRDIWTALQSWL [TSG006] , what Therapeutic Index (CC50/EC50) is on record?
Output: 26.04

Task: For the sequence SWLRDIWDWICEVLSDFK [C5A, reference compound] , what Therapeutic Index (CC50/EC50) is on record?
Output: 85.26

Task: For the sequence GSSWLRDVWTWLQSKL [TSG002] , what Therapeutic Index (CC50/EC50) is on record?
Output: 9.60

Task: For the sequence GSSWLRDVWTWLQSAL [TSG003] , what Therapeutic Index (CC50/EC50) is on record?
Output: 22.33

---

# Assay Remarks: in vitro
# Condition Set: Lactobacillus jensenii
Where no end group is shown, it is not given here.
Property Measured: CC50

Task: For the sequence SGSWLRDVWTWLQSKL [TSG001] , what CC50 is on record?
Output: > 50 µM

---

# Test system: DENV-1 PRS41393
# Condition Set: -1 PRS41393
Where no end group is shown, it is not given here.
I'd be grateful if you could share measured Therapeutic Index (CC50/EC50) for these entries.
Give the figure by itself; no unit, no explanation.

Task: For the sequence GSSWLRDVWTWLQSKL [TSG002] , what Therapeutic Index (CC50/EC50) is on record?
Output: 10.41

Task: For the sequence GSSWLRDVWTWLQSAL [TSG003] , what Therapeutic Index (CC50/EC50) is on record?
Output: 11.46

Task: For the sequence GSSWLRDIWTALQSWL [TSG006] , what Therapeutic Index (CC50/EC50) is on record?
Output: 12.03

Task: For the sequence GSSWLRDVWTKLQSWL [TSG004] , what Therapeutic Index (CC50/EC50) is on record?
Output: 13.45

Task: For the sequence SWLRDIWDWICEVLSDFK [C5A, reference compound] , what Therapeutic Index (CC50/EC50) is on record?
Output: 44.60

---

# System: VEEV TC-83
# Condition Set: 0 h
Where no end group is shown, it is not given here.
Property Measured: EC50

Task: For the sequence GSSWLRDVWTWLQSAL [TSG003] , what EC50 is on record?
Output: > 12.5 µM

Task: For the sequence GSSWLRDVWTWLQSKL [TSG002] , what EC50 is on record?
Output: > 12.5 µM

Task: For the sequence SGSWLRDVWTWLQSKL [TSG001] , what EC50 is on record?
Output: > 12.5 µM

Task: For the sequence GSSWLRDVWTKLQSWL [TSG004] , what EC50 is on record?
Output: > 50 µM

---

# Test system: DENV-2 New Guinea C
# Assay Remarks: microbe, parasite or virus in culture
# Condition Set: Dengue virus, DENV2, Vero, 0 h
Property Measured: EC50 (µM)
Your answer should be a plain number; it is taken to be in µM.

Task: For the compound NC(=O)c1ncn([C@@H]2O[C@H](CO)[C@@H](O)[C@H]2O)n1 , what EC50 is on record?
Output: 360

---

# Test system: Vero cells
# Condition Set: African green monkey
Where no end group is shown, it is not given here.
I'd be grateful if you could share measured CC50 for these entries.
Your answer should be a plain number; it is taken to be in µM.

Task: For the sequence GSSWLRDVWTWLQSKL [TSG002] , what CC50 is on record?
Output: 16.1

Task: For the sequence GSSWLRDVWTKLQSWL [TSG004] , what CC50 is on record?
Output: 114

Task: For the sequence GSSWLRDVWTWLQSAL [TSG003] , what CC50 is on record?
Output: 38.6

Task: For the sequence SGSWLRDVWTWLQSKL [TSG001] , what CC50 is on record?
Output: 153

---

Where no end group is shown, it is not given here.
Property Measured: MHC

Task: Write down the reported MHC of GSSWLRDVWTWLQSKL [TSG002] , test system: human erythrocyte cells.
Output: 50 µM

Task: Write down the reported MHC of GSSWLRDIWTALQSWL [TSG006] , test system: human erythrocyte cells.
Output: 3 µM

Task: Write down the reported MHC of GSSWLRDIWTKLQSWL [TSG005] , test system: human erythrocyte cells.
Output: 13 µM

---

# Tested on: DENV-1 PRS41393
# Assay Remarks: microbe, parasite or virus in culture
# Condition Set: Dengue virus, DENV1, Vero
Property Measured: pEC50
Kindly note that pEC50 refers to -log10 of the concentration in mol/L and answer with the value alone.

Task: For the compound NC(=O)c1ncn([C@@H]2O[C@H](CO)[C@@H](O)[C@H]2O)n1 , what pEC50 is on record?
Output: 3.84

---

# Tested on: Vero cells
# Condition Set: African green monkey
Property Measured: CC50 (µM)
Your answer should be a plain number; it is taken to be in µM.

Task: For the molecule NC(=O)c1ncn([C@@H]2O[C@H](CO)[C@@H](O)[C@H]2O)n1 , what CC50 is on record?
Output: 577

---

# Assay Remarks: in vitro
# Condition Set: African green monkey
Where no end group is shown, it is not given here.
Property Measured: EC50

Task: For the sequence SWLRDIWDWICEVLSDFK [C5A, reference compound] , what EC50 is on record?
Output: 29 µM

Hello, the source for this data is patent US11866460B2, in case you need it.
